# MEASURED_TARGET: T1, biotinylated hu-CD3ε (human, UniProt P07766 23-126, limits assumed, biotinylated (site not stated))
# T1 construct: The construct is not described; also called biotin-CD3ε; human CD3ε
# T1 sequence (P07766 23-126 limits assumed): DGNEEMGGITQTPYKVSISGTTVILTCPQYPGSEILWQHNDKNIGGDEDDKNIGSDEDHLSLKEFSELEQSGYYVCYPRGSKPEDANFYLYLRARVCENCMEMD
# EXPERIMENT_SUMMARY: kinetic Kd determination of the expressed scFv, method not named
Give measured kon for each item. Keep answers brief.
Give bare numbers, in M⁻¹ s⁻¹.

Check out these entries, answers already filled in.
- BINDER: "Anti-CD3, clone 10E4 (scFv, Expressed in Expi293 from the pcDNA3.4 His6 vector) scFv: EVQLVESGGGLVQPGGSLKLSCAASGFTFNKYPMNWVRQAPGKGLEWVARIRSKYNNYATYYADSVKDRFTISRDDSKNTAYLQMNNLKNEDTAVYYCVRHGNFNNSYISYWAYWGQGTLVTVSSGGGGSGGGGSGGGGSQTVVTQEPSLTVSPGGTVTLTCGSSTGAVTKGNYPNWVQQKPGQAPRGLIGGTKMLAPGTPARFSGSLLGGKAALTLSGVQPEDEAEYYCALWYSNRWVFGGGTKLTVLHHHHHH"
  ENDPOINT_RESULT: 522000
- BINDER: "Anti-CD3, clone 6A2 (scFv, Expressed in Expi293 from the pcDNA3.4 His6 vector) scFv: EVQLVESGGGLVQPGGSLKLSCAASGFMFNKYAMNWVRQAPGKGLEWVARIRSKSNNYATYYADSVKDRFTISRDDSKNTAYLQMNNLKTEDTAVYYCVRHGNFGNSYISYWATWGQGTLVTVSSGGGGSGGGGSGGGGSQTVVTQEPSLTVSPGGTVTLTCGSSFGAVTSGNYPNWVQQKPGQAPRGLIGGTKLLAPGTPARFSGSLLGGKAALTLSGVQPEDEAEYYCVLWYSNSWVFGGGTKLTVLHHHHHH"
  ENDPOINT_RESULT: 522000
- BINDER: "Anti-CD3, clone 2G5 (scFv, Expressed in Expi293 from the pcDNA3.4 His6 vector) scFv: EVQLVESGGGLVQPGGSLKLSCAASGFTFNKYALNWVRQAPGKGLEWVARIRSKYNNYATEYADSVKDRFTISRDDSKNTAYLQMNNLKTEDTAVYYCVRHGNFGNSPISYWAYWGQGTLVTVSSGGGGSGGGGSGGGGSQTVVTQEPSLTVSPGGTVTLTCGSSTGAVTSGNYPNWVQQKPGQAPRGLIGGTNFLAPGTPERFSGSLLGGKAALTLSGVQPEDEAEYYCVLWYSNRWAFGGGTKLTVLHHHHHH"
  ENDPOINT_RESULT: 994000

Could you now look at the following binder, please?
Look up kon: Anti-CD3, clone 3F2 (scFv, Expressed in Expi293 from the pcDNA3.4 His6 vector) scFv: EVQLVESGGGLVQPGGSLKLSCAASGFTYNKYAMNWVRQAPGKGLEWVARIRSKYNNYATYYADEVKDRFTISRDDSKNTAYLQMNNLKTEDTAVYYCVRHGNFGNSPISYWAYWGQGTLVTVSSGGGGSGGGGSGGGGSQTVVTQEPSLTVSPGGTVTLTCGSSKGAVTSGNYPNWVQQKPGQAPRGLIGGTKELAPGTPARFSGSLLGGKAALTLSGVQPEDEAEYYCTLWYSNRWVFGGGTKLTVLHHHHHH
704000
